Data origin, for the record: PubChem BioAssay AID1963968

test system: 945468-187-T-J3-PDC spheroids with HUVEC/MSC, viability; assay: Anticancer human tumor 945468-187-T-J3-PDC patient-derived rectal carcinoma cell line growth inhibition [PI3K]; settings: second compound 0.316 µM; first compound 0.1 µM; active compounds read low;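 also: spheroids exposed to agents for 7 days before viability read; 100% = DMSO vehicle control viability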
property: viability, T/C

compound | result
Cn1ncc(Cl)c1-c1cc(C(=O)NC(CN)Cc2cccc(F)c2)sc1Cl (stereo not given) + COc1c(OCCCN2CCOCC2)ccc2c3n(c(=NC(=O)c4cnc(N)nc4)nc12)CCN3 | 19.1%
CCN1CCN(Cc2ccc(Nc3ncc(F)c(-c4cc(F)c5nc(C)n(C(C)C)c5c4)n3)nc2)CC1 + Cc1nc(NC(=O)N2CCCC2C(N)=O)sc1-c1ccnc(C(C)(C)C(F)(F)F)c1 | 107%
C#Cc1c(F)ccc2cc(O)cc(-c3ncc4c(N5CC6CCC(C5)N6)nc(OCC56CCCN5CC(F)C6)nc4c3F)c12 (stereo not given) + Cc1nc(NC(=O)N2CCCC2C(N)=O)sc1-c1ccnc(C(C)(C)C(F)(F)F)c1 | 105%
CC1(C)CCC(Nc2ncc(C(F)(F)F)c(-c3c[nH]c4c(P(C)(C)=O)c(C#N)ccc34)n2)CN1 (stereo not given) + Cc1nc(NC(=O)N2CCCC2C(N)=O)sc1-c1ccnc(C(C)(C)C(F)(F)F)c1 | 75.5%
C[C@@H](NC(=O)c1ncnc(N)c1Cl)c1ncc(C(=O)Nc2cc(C(F)(F)F)c(Cl)cn2)s1 + CC(Nc1ncnc2nc[nH]c12)c1cc2cccc(Cl)c2c(=O)n1-c1ccccc1 | 115%
